The entries below come with measured CC50 values attached.
- assay text: in vitro
- Format: cell-based
- experimental setup: human
Use µM as the unit, but write only the number.

// worked examples, CC50 included
CC(C)[C@H](NC(=O)N(C)Cc1csc(C2CCCC2)n1)C(=O)N[C@@H](Cc1ccccc1)C[C@H](O)[C@H](Cc1ccccc1)NC(=O)OCc1cncs1 [Example 58]; 18
CC(C)c1nc(CN(NC(=O)OC(C)(C)C)C(=O)N[C@H](C(=O)N[C@@H](Cc2ccccc2)C[C@H](O)[C@H](Cc2ccccc2)NC(=O)OCc2cncs2)C(C)C)cs1 [Example 62]; 17

Input CC(C)[C@H](NC(=O)OCc1csc(N2CCCC2)n1)C(=O)N[C@@H](Cc1ccccc1)C[C@H](O)[C@H](Cc1ccccc1)NC(=O)OCc1cncs1 [Example 13] , output reported CC50.
56

Please look at this compound and report its CC50: CC(C)Cc1nc(CN(C)C(=O)N[C@H](C(=O)N[C@@H](Cc2ccccc2)C[C@H](O)[C@H](Cc2ccccc2)NC(=O)OCc2cncs2)C(C)C)cs1 [Example 59]
18

Note CC50 for the compound shown: CC(C)[C@H](NC(=O)OCc1csc(N(C)C)n1)C(=O)N[C@@H](Cc1ccccc1)C[C@H](O)[C@H](Cc1ccccc1)NC(=O)OCc1cncs1 [Example 9]
62

Consider the compound CC(C)[C@H](NC(=O)N(C)Cc1csc(N2CCCC2)n1)C(=O)N[C@@H](Cc1ccccc1)C[C@H](O)[C@H](Cc1ccccc1)NC(=O)OCc1ccno1 [Example 49] . State its measured CC50.
38

====

- Tested on: MT4 cells
- assay text: in vitro
- Assay type: cell-based
- experimental setup: concentration at which 50% of the cells remain viable; MT4 cells; read-out: LC50 (the source's name)
Listing of recorded CC50 by entry.

Using the record for CC(C)c1nc(CN(C)C(=O)N[C@H](C(=O)N[C@@H](Cc2ccccc2)C[C@H](O)[C@H](Cc2ccccc2)NC(=O)OCc2cnco2)C(C)C)co1 , state its measured CC50.
87 µM

Given CC(C)c1nc(CC(=O)N[C@H](C(=O)N[C@@H](Cc2ccccc2)C[C@H](O)[C@H](Cc2ccccc2)NC(=O)OCc2cncs2)C(C)C)cs1 , respond with its CC50.
> 100 µM

====

- Test system: HIV-13B in MT4 cells
- assay text: Antiviral activity: inhibition of the cytopathic effect of HIV in MT4 cells
- Format: cell-based, HIV-1
- experimental setup: Human immunodeficiency virus 1, MT4; read-out: IC50
metric: IC50

Sample records with IC50:
CC(C)c1nc(CN(C(=O)N[C@@H](C)C(=O)N[C@@H](Cc2ccccc2)C[C@H](O)[C@H](Cc2ccccc2)NC(=O)OCc2cncs2)C2CC2)cs1; 0.43 to 0.67 µM
CC(C)c1nc(CN(NC(=O)OC(C)(C)C)C(=O)N[C@H](C(=O)N[C@@H](Cc2ccccc2)C[C@H](O)[C@H](Cc2ccccc2)NC(=O)OCc2cncs2)C(C)C)cs1; 0.69 to 1 µM

Please indicate recorded IC50 of CCc1nc(CN(C)C(=O)N[C@H](C(=O)N[C@@H](Cc2ccccc2)C[C@H](O)[C@H](Cc2ccccc2)NC(=O)OCc2cncs2)C(C)C)co1 measured with HIV-13B in MT4 cells.
0.015 to 0.02 µM

====

- assay text: in vitro
- Assay type: cell-based
- experimental setup: human; concentration at which 50% of the cells remain viable; MT4 cells; read-out: LC50 (the source's name)
Where a name gives a salt, the structure may show the parent alone.
CC50 listing for selected compounds.
Give just the numeric value; µM need not be written.

CCN(Cc1csc(C2CCCC2)n1)C(=O)N[C@@H](C)C(=O)N[C@@H](Cc1ccccc1)C[C@H](O)[C@H](Cc1ccccc1)NC(=O)OCc1cncs1 [Example 60]; 17

// switching to the query compound
Read the entry CC(C)c1nc(CN(N)C(=O)N[C@H](C(=O)N[C@@H](Cc2ccccc2)C[C@H](O)[C@H](Cc2ccccc2)NC(=O)OCc2cncs2)C(C)C)cs1 [Example 63, Hydrochloride] and write its reported CC50.
45

====

- Tested on: HIV-13B in MT4 cells
- assay text: Antiviral activity: inhibition of the cytopathic effect of HIV in MT4 cells
- Assay type: cell-based, HIV-1
- experimental setup: Human immunodeficiency virus 1, MT4; read-out: IC50
pIC50: −log10 of the molar value.
metric: pIC50

Solved entries (count: 5):
Cc1nc(CN(C)C(=O)N[C@H](C(=O)N[C@@H](Cc2ccccc2)C[C@H](O)[C@H](Cc2ccccc2)NC(=O)OCc2cncs2)C(C)C)co1; 7.10 to 7.14
CC(C)c1nc(CN(C(=O)N[C@H](C(=O)N[C@@H](Cc2ccccc2)C[C@H](O)[C@H](Cc2ccccc2)NC(=O)OCc2cncs2)C(C)C)C2CC2)cs1; 6.51 to 6.64
CC(C)c1nc(CN(C)C(=O)N[C@@H](C)C(=O)N[C@@H](Cc2ccccc2)C[C@H](O)[C@H](Cc2ccccc2)NC(=O)OCc2ccno2)co1; 7.32 to 7.46
Cc1ncc(COC(=O)N[C@@H](Cc2ccccc2)C[C@H](O)[C@H](Cc2ccccc2)NC(=O)[C@@H](NC(=O)N(C)Cc2csc(C(C)C)n2)C(C)C)s1; 7.11 to 7.14
CCc1nc(CN(C)C(=O)N[C@H](C(=O)N[C@@H](Cc2ccccc2)C[C@H](O)[C@H](Cc2ccccc2)NC(=O)OCc2cncs2)C(C)C)cs1; 7.14 to 7.49

Continue with the next compound.
Give the measured pIC50 for CC(C)c1nc(COC(=O)N[C@H](C(=O)N[C@@H](Cc2ccccc2)C[C@H](O)[C@H](Cc2ccccc2)NC(=O)OCc2cncs2)C(C)C)cs1
8.05 to 8.52

====

// IC50 lookup, one value per entry
- Tested on: HIV-13B in MT4 cells
- assay text: Antiviral activity: inhibition of the cytopathic effect of HIV in MT4 cells
- Type: cell-based, HIV-1
- experimental setup: Human immunodeficiency virus 1, MT4; read-out: IC50

Study these solved cases before continuing.
CC(C)c1nc(CN(C)C(=O)N[C@@H](C)C(=O)N[C@@H](Cc2ccccc2)C[C@H](O)[C@H](Cc2ccccc2)NC(=O)OCc2cncs2)co1; 50 to 67 nM
CC(C)c1nc(CN(C)C(=O)N[C@H](C(=O)N[C@H](Cc2cncs2)C[C@H](O)[C@H](Cc2ccccc2)NC(=O)OCc2cncs2)C(C)C)cs1; 57 to 95 nM
CC(C)c1nc(CCN(C)C(=O)N[C@H](C(=O)N[C@@H](Cc2ccccc2)C[C@H](O)[C@H](Cc2ccccc2)NC(=O)OCc2cncs2)C(C)C)cs1; 150 to 220 nM

For the compound CC(C)[C@H](NC(=O)OCc1csc(N2CCCC2)n1)C(=O)N[C@@H](Cc1ccccc1)C[C@H](O)[C@H](Cc1ccccc1)NC(=O)OCc1cncs1 , report IC50.
56 to 88 nM

Hello, please tell me recorded IC50 for this one: CC(C)c1nc(COC(=O)N[C@H](C(=O)N[C@@H](Cc2ccccc2)[C@@H](O)C[C@@H](Cc2cncs2)NC(=O)OCc2cncs2)C(C)C)cs1
120 to 200 nM

Please report IC50 for the following compound: CC(C)[C@H](NC(=O)OCc1csc(N2CCOCC2)n1)C(=O)N[C@@H](Cc1ccccc1)[C@@H](O)C[C@H](Cc1ccccc1)NC(=O)OCc1cncs1
53 to 106 nM

Identify IC50 associated with the compound CC(C)c1nc(CN(C)C(=O)N[C@H](C(=O)N[C@@H](Cc2ccccc2)C[C@H](O)[C@H](Cc2ccccc2)NC(=O)OCc2cncs2)C(C)C)cs1
25 to 40 nM

Determine from records and report IC50 for CC(C)c1nc(CN(C)C(=O)N[C@H](C(=O)N[C@@H](Cc2ccccc2)C[C@H](O)[C@H](Cc2ccccc2)NC(=O)OCc2ccno2)C(C)C)co1
11 to 12 nM

In one line, give reported IC50 of the entry CC(C)c1nc(CN(C)C(=O)N[C@H](C(=O)N[C@@H](Cc2ccccc2)C[C@H](O)[C@H](Cc2ccccc2)NC(=O)OCc2cncs2)C(C)C)co1 .
39 to 46 nM

Tell me its IC50 given CC(C)c1nc(CCOC(=O)N[C@H](C(=O)N[C@@H](Cc2ccccc2)C[C@H](O)[C@H](Cc2ccccc2)NC(=O)OCc2cncs2)C(C)C)cs1 as the entry.
9 to 24 nM

====

- Tested on: HIV-13B in MT4 cells
- assay text: Antiviral activity: inhibition of the cytopathic effect of HIV in MT4 cells
- Format: cell-based, HIV-1
- experimental setup: Human immunodeficiency virus 1, MT4; read-out: IC50
metric: IC50

CCC(CC)c1nc(CN(C)C(=O)N[C@H](C(=O)N[C@@H](Cc2ccccc2)C[C@H](O)[C@H](Cc2ccccc2)NC(=O)OCc2cncs2)C(C)C)cs1; 120 to 160 nM
CCN(Cc1csc(C(C)C)n1)C(=O)N[C@H](C(=O)N[C@@H](Cc1ccccc1)C[C@H](O)[C@H](Cc1ccccc1)NC(=O)OCc1cncs1)C(C)C; 170 to 320 nM
CC(C)c1nc(COC(=O)N[C@H](C(=O)N[C@@H](Cc2ccccc2)[C@@H](O)C[C@H](Cc2ccccc2)NC(=O)OCc2cncs2)C(C)C)cs1; 6 to 14 nM
CC(C)[C@H](NC(=O)N(C)Cc1csc(C2CCC2)n1)C(=O)N[C@@H](Cc1ccccc1)C[C@H](O)[C@H](Cc1ccccc1)NC(=O)OCc1cncs1; 35 to 42 nM
CC(C)c1nc(COC(=O)N[C@@H](C)C(=O)N[C@@H](Cc2ccccc2)C[C@H](O)[C@H](Cc2ccccc2)NC(=O)OCc2cncs2)cs1; 76 to 131 nM

Now look at this entry.
Return IC50 for the following compound: CC(C)[C@H](NC(=O)N(C)Cc1csc(N2CCCC2)n1)C(=O)N[C@@H](Cc1ccccc1)C[C@H](O)[C@H](Cc1ccccc1)NC(=O)OCc1cncs1
100 to 170 nM
